Hi there, I'd appreciate the recorded IC50 for every entry that follows.
molecular target: Class A ESBL CTXM-15 (Escherichia coli, UniProt Q9EXV5); experiment: β-lactamase enzyme inhibition (nitrocefin hydrolysis), CTXM-15; settings: purified enzyme; nitrocefin 100 μM, PBS pH 7.0; read-out: CTXM-15 IC50 Range
Sequence (Q9EXV5 entry or part of it): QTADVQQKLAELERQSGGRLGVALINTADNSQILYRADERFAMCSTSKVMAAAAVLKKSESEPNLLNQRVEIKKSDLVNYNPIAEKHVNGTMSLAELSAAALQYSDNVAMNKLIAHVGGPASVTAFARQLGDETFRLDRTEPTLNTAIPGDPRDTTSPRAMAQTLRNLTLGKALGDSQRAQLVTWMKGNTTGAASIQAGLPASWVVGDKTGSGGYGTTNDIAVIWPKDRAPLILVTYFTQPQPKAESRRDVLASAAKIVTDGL

MOLECULE	SYSTEM_NAME	IC50
O=C(N[C@@H](Cc1cccc(C(=O)O)c1O)B(O)O)c1ccc(Cl)cc1 [Example 32]	Class A ESBL CTXM-15 (Escherichia coli, UniProt Q9EXV5)	< 10 nM
NCCC(=O)N[C@@H](Cc1cccc(C(=O)O)c1O)B(O)O.O=CO [Example 38, formate salt]	Class A ESBL CTXM-15 (Escherichia coli, UniProt Q9EXV5)	100 to 1000 nM
O=C(CO)N[C@@H](Cc1cccc(C(=O)O)c1O)B(O)O [Example 19]	Class A ESBL CTXM-15 (Escherichia coli, UniProt Q9EXV5)	10 to 100 nM
CC(=O)Nc1nc(CC(=O)N[C@@H](Cc2cccc(C(=O)O)c2O)B(O)O)cs1 [Example 63]	Class A ESBL CTXM-15 (Escherichia coli, UniProt Q9EXV5)	< 10 nM
O=C(O)c1cccc(C[C@H](NC(=O)C2CCCC2)B(O)O)c1O [Example 15]	Class A ESBL CTXM-15 (Escherichia coli, UniProt Q9EXV5)	10 to 100 nM

Quick batch: IC50 for everything below.
1. O=C(N[C@@H](Cc1cccc(C(=O)O)c1O)B(O)O)c1ccc(O)cc1 [Example 36]
2. O=C(N[C@@H](Cc1cccc(C(=O)O)c1O)B(O)O)c1cccc(-n2ccnc2)c1 [Example 57]
3. O=C(N[C@@H](Cc1cccc(C(=O)O)c1O)B(O)O)c1cnccn1 [Example 58]
4. O=C(Cc1cccnc1)N[C@@H](Cc1cccc(C(=O)O)c1O)B(O)O.O=CO [Example 59, formate salt]
5. O=C(N[C@@H](Cc1cccc(C(=O)O)c1O)B(O)O)c1cn2ccsc2n1 [Example 56]
6. CCCCCC(=O)N[C@@H](Cc1cccc(C(=O)O)c1O)B(O)O [Example 21]

Reply:
1: < 10 nM; 2: < 10 nM; 3: < 10 nM; 4: < 10 nM; 5: 10 to 100 nM; 6: < 10 nM

Quick batch: IC50 for everything below.
1. O=C(Cc1ccccc1)N[C@@H](Cc1cccc(C(=O)O)c1O)B(O)O [Example 10]
2. O=C(Cc1cccs1)N[C@@H](Cc1ccc(C(=O)O)cc1O)B(O)O [Example 2]
3. COc1ccc(OC)c(CC(=O)N[C@@H](Cc2cccc(C(=O)O)c2O)B(O)O)c1 [Example 17]
4. CC(=O)N[C@@H](Cc1cccc(C(=O)O)c1O)B(O)O [Example 6]
5. O=C(N[C@@H](Cc1cccc(C(=O)O)c1O)B(O)O)c1ccc(Cl)nc1 [Example 31]
6. N[C@H](C(=O)N[C@@H](Cc1cccc(C(=O)O)c1O)B(O)O)c1ccccc1.O=CO [Example 12, formate salt]
7. O=C(N[C@@H](Cc1cccc(C(=O)O)c1O)B(O)O)c1cncnc1 [Example 60]

Reply:
1. < 10 nM
2. 100 to 1000 nM
3. < 10 nM
4. < 10 nM
5. < 10 nM
6. 10 to 100 nM
7. 10 to 100 nM
